# measuredTarget: C. elegans CED-3 (crude lysate, CED-3L) (Caenorhabditis elegans, UniProt P42573)
# protocolNotes: CED-3 fluorogenic assay
IC50 listing for selected molecules.
Give the number; µM is assumed, so skip it.

As a guide, the following entries are already answered.
> print(dat)
                                   molecule  endpointname  obsvalue
1  CC(=O)c1ccc(-c2ccc(/C=C3/SC(=S)NC3=O)o2)cc1          IC50        21
2  O=C(/C=C/c1ccco1)c1ccc(NC(=O)c2cccs2)cc1          IC50        30
3  CC(=O)N[C@@H](CC(=O)O)C(=O)N[C@@H](CCC(=O)O)C(=O)N[C@H](C(=O)N[C@H](C=O)CC(=O)O)C(C)C [Ac-DEVD-CHO, reference compound]          IC50    0.0019
4                  Nc1ccc(N2Cc3ccccc3C2)cc1          IC50      43.1

Which IC50 value is on record for "O=c1cc2oc3cc(O)c(O)cc3c(-c3ccccn3)c-2cc1O" ?
24.5

Which IC50 value is on record for "CCCOC(=O)/C(=C\C=C\c1ccco1)NC(=O)c1ccccc1" ?
34.7

* * *

# measuredTarget: UniProt:P42573
# Sequence (P42573 221-374 limits assumed): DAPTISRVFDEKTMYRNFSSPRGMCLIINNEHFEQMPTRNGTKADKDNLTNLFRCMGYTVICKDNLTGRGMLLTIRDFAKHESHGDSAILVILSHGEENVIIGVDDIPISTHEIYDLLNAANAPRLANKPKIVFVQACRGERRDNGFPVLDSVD
# Sequence (P42573 389-503 limits assumed): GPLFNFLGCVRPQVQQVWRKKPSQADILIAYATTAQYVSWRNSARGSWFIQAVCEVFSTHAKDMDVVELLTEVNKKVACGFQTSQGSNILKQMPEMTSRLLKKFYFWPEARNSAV
# protocolNotes: CED-3 fluorogenic assay
# Assay type: biochemical
# experimentalContext: determined by XLfit in ActivityBase
Purified CED-3 Hill Slope Value listing for selected compounds.
// no unit, no text: just the number

> print(dat)
                             chemicalstring  obsvalue
1  CC(=O)c1ccc(-c2ccc(/C=C3/SC(=S)NC3=O)o2)cc1      1.79
2                  Nc1ccc(N2Cc3ccccc3C2)cc1      0.62
3  COc1ccc(N2C(=O)/C(=C/c3ccco3)C(=O)NC2=S)cc1       1.6
4  O=c1cc2oc3cc(O)c(O)cc3c(-c3ccccn3)c-2cc1O       1.7
5  O=C(/C=C/c1ccco1)c1ccc(NC(=O)c2cccs2)cc1      1.38

Which Purified CED-3 Hill Slope Value value is on record for "CCCOC(=O)/C(=C\C=C\c1ccco1)NC(=O)c1ccccc1" ?
1.27

Which Purified CED-3 Hill Slope Value value is on record for "O=C1NC(=S)N(c2ccc(F)cc2)C(=O)/C1=C/c1ccco1" ?
1.5

* * *

pIC50 listing for selected compounds.
# measuredTarget: purified C. elegans CED-3 (Caenorhabditis elegans, UniProt P42573)
# Sequence (P42573 221-374 limits assumed): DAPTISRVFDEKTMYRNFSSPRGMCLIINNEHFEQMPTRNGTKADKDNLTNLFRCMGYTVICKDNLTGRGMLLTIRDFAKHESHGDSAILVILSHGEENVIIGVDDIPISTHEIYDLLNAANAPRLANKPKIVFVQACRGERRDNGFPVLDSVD
# Sequence (P42573 389-503 limits assumed): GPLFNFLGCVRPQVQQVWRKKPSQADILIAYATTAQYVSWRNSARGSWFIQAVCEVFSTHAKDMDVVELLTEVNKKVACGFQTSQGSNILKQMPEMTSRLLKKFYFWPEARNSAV
Scale note: pIC50 = -log10(concentration in M).

Which pIC50 value is on record for CCCOC(=O)/C(=C\C=C\c1ccco1)NC(=O)c1ccccc1 [BAS 00187854] ?
4.84

Which pIC50 value is on record for Nc1ccc(N2Cc3ccccc3C2)cc1 [BAS 01988614] ?
4.87

Which pIC50 value is on record for CC(=O)c1ccc(-c2ccc(/C=C3/SC(=S)NC3=O)o2)cc1 [BAS 00253468] ?
5.05

Which pIC50 value is on record for O=c1cc2oc3cc(O)c(O)cc3c(-c3ccccn3)c-2cc1O [BAS 05223612] ?
5.41

Which pIC50 value is on record for O=C(/C=C/c1ccco1)c1ccc(NC(=O)c2cccs2)cc1 [BAS 00835000] ?
5.31

Which pIC50 value is on record for CC(=O)N[C@@H](CC(=O)O)C(=O)N[C@@H](CCC(=O)O)C(=O)N[C@H](C(=O)N[C@H](C=O)CC(=O)O)C(C)C [Ac-DEVD-CHO, reference compound] ?
8.57
